List of luciferase reporter transactivation values.
tested on: PPARgamma LBD (GAL4 fusion); assay: luciferase reporter transactivation, fold of solvent control; higher = stronger receptor activation; settings: concentration: 5 µM; HEK293T; exposure time: 24 h
Note: the reply should be a number with no unit written.

Check out these entries, answers already filled in.
> print(dat)
                                item.smiles                       endpoint.label  measurement
1  O=S(=O)(O)CCC(F)(F)C(F)(F)C(F)(F)C(F)(F)C(F)(F)C(F)(F)F  luciferase reporter transactivation         1.66
2  OCCC(F)(F)C(F)(F)C(F)(F)C(F)(F)C(F)(F)C(F)(F)F  luciferase reporter transactivation            1
3       O=C(O)C(F)(F)C(F)(F)C(F)(F)C(F)(F)F  luciferase reporter transactivation         1.01

Q: Please give the documented luciferase reporter transactivation of O=S(=O)(O)CCC(F)(F)C(F)(F)C(F)(F)C(F)(F)C(F)(F)C(F)(F)C(F)(F)C(F)(F)F
Result: 0.861
